# IC50 values compiled below
- tested-system: MHC DR2 (DRB1*1501/DRA*0101) (Homo sapiens, UniProt P01903+P01911)
- Construct: endogenous in cells; host or cells: EBV homozygous (B lymphoblastoid) cell lines
- assay-protocol: HLA II Binding Assay (competition with biotinylated reference peptide)
- condition-parameters: purified HLA-DR, biotinylated reference compound for DRB1*1501, 37° C. 24 h to 72 h; read-out: Inhibition of peptide binding IC50 (against MHC DR2 (DRB1*1501/DRA*0101))
Square brackets hold non-standard residues; d marks the D form. Peptide text beside a SMILES is read from it. Tic = O=C(O)[C@@H]1Cc2ccccc2CN1; Cit = NC(=O)NCCC[C@H](N)C(=O)O; Chg = N[C@H](C(=O)O)C1CCCCC1; βAla = NCCC(=O)O
outcome-measure: IC50

{"columns": ["compound", "experimental-value"],
 "data": [
  ["CC(=O)N[C@H](C(=O)N[C@H](C(=O)N[C@@H](C)C(=O)N1Cc2ccccc2C[C@H]1C(=O)N[C@@H](Cc1ccccc1)C(N)=O)C1CCCCC1)C(C)C [AcV(Chg)A(Tic)F] (Ac-V[Chg]A[Tic]F-NH2)", "10 to 100 nM"],
  ["CC(C)[C@H](NC(=O)CCN)C(=O)N[C@H](C(=O)N[C@@H](CCCNC(N)=O)C(=O)N1Cc2ccccc2C[C@H]1C(=O)N[C@@H](Cc1ccccc1)C(N)=O)C1CCCCC1 [(NH2-Beta Ala)V(Chg)(Cit)(Tic)F] (H-[βAla]V[Chg][Cit][Tic]F-NH2)", "1 to 10 nM"]
]}
